Provenance of the data: paper PMC4336329

biological target: human ether-à-go-go-related gene (hERG) potassium channel (human, UniProt Q12809); test: primary screen, population patch clamp on CHO cells stably expressing hERG; higher = less effect of the substance
Sequence (Q12809 whole entry, looked up): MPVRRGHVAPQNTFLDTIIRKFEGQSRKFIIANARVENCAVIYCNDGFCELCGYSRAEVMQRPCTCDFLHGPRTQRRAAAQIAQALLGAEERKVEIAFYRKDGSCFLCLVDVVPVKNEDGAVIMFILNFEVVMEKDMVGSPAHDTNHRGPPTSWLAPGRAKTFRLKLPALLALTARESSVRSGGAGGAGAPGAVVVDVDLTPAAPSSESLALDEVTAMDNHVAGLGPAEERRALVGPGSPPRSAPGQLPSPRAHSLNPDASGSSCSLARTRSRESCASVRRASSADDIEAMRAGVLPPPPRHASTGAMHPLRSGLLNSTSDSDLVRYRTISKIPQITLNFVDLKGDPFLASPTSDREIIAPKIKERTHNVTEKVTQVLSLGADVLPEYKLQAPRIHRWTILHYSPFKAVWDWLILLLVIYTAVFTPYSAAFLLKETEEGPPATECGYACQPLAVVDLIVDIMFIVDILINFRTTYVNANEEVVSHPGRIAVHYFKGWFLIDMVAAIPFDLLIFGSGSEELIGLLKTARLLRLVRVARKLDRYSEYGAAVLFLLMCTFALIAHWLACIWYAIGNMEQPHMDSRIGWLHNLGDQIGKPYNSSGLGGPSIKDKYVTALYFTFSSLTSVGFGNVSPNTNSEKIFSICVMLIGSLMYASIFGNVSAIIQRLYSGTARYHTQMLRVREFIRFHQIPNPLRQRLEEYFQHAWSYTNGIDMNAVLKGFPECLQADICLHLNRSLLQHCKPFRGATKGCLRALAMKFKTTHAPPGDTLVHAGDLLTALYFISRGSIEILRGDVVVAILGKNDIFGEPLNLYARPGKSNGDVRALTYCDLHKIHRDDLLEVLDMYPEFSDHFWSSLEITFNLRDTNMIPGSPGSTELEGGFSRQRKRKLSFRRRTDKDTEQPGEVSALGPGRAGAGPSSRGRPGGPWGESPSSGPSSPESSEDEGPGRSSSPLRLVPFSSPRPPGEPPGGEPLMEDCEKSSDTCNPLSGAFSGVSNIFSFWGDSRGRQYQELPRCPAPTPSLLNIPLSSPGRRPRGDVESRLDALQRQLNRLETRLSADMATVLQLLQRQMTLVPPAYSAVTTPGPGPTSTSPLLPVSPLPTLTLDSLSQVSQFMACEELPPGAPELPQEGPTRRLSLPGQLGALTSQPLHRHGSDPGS
Screen size: about 310,000 compounds; about 2,200 (0.71%) showed an effect of 50% or more. The effect is printed as a negative number. The entries come from a sample that favours strong results as a whole.
Assignment: determine reported hERG current change (%, negative = inhibition) at 1uM for the given compounds.
Give the number; % is assumed, so skip it.

Reported hERG current change (%, negative = inhibition) at 1uM of CN(C(=O)CCN1C(=O)c2ccccc2C1=O)c1ccccc1 : 15.8

Reported hERG current change (%, negative = inhibition) at 1uM of Cc1csc(Sc2ccc(S(=O)(=O)N3CCCC3)cn2)n1 : -2.28

Reported hERG current change (%, negative = inhibition) at 1uM of Cc1cc(=O)[nH]c(SC(C)C(=O)Nc2cccc3ccccc23)n1 (centres unmarked) : 6.33

Reported hERG current change (%, negative = inhibition) at 1uM of COc1cc(C)ccc1OCc1cc(C(=O)N(C)CCCN2CCOCC2)no1 : -7.67

Reported hERG current change (%, negative = inhibition) at 1uM of COc1cc(Cl)c(C)cc1NC(=O)COc1ccccc1[N+](=O)[O-] : -2.79

Reported hERG current change (%, negative = inhibition) at 1uM of O=C(CCC1CCCCC1)NCCN1C2=NC[C@H](Cc3ccc(O)cc3)N2C[C@H]1Cc1ccc(O)cc1 : 12.5

Reported hERG current change (%, negative = inhibition) at 1uM of Cc1ccc(Sc2cc(NCCCO)c([N+](=O)[O-])c3nonc23)cc1 : 5.43

Reported hERG current change (%, negative = inhibition) at 1uM of O=C(CCNS(=O)(=O)c1ccc(Cl)cc1)N1CCN(Cc2ccccc2)CC1 : -16.1

Reported hERG current change (%, negative = inhibition) at 1uM of Cc1ccc2c(Cn3ccnc3)cc(=O)oc2c1C : 15.6

Reported hERG current change (%, negative = inhibition) at 1uM of COc1ccccc1C(=O)N/N=C/c1cnc2ccccc2n1 : 6.27

Reported hERG current change (%, negative = inhibition) at 1uM of CCN=C(NCC)SC1CC(=O)N(c2ccc(OCC)cc2)C1=O (centres unmarked) : 7.6

Reported hERG current change (%, negative = inhibition) at 1uM of O=C(NCC(=O)N1CC=C(c2ccccc2)CC1)c1ccco1 : -50.9

Reported hERG current change (%, negative = inhibition) at 1uM of CCOC(=O)c1cc2c(=O)n3ccccc3nc2n(CCCOC)c1=NC(=O)c1ccncc1 : -40

Reported hERG current change (%, negative = inhibition) at 1uM of COc1ccc(/C=N/N2CCN(C3c4ccccc4-c4ccccc43)CC2)cc1OC : 12.9

Reported hERG current change (%, negative = inhibition) at 1uM of Cc1ccc(NC(=O)/C=C/c2ccc([N+](=O)[O-])s2)c(C)c1 : 10.5

Reported hERG current change (%, negative = inhibition) at 1uM of S=C1NC(c2ccccc2)N2C(=S)NC(c3ccccc3)N12 (centres unmarked) : 3.38

Reported hERG current change (%, negative = inhibition) at 1uM of O=C(Cn1ccc(NC(=O)OCc2ccccc2)nc1=O)NCCCN1CCCC1=O : 7.66

Reported hERG current change (%, negative = inhibition) at 1uM of N#Cc1ccc(CN2CCN(C(=O)CCNS(=O)(=O)c3ccc(F)c(F)c3)CC2)cc1 : -62.3

Reported hERG current change (%, negative = inhibition) at 1uM of CCOC(=O)c1cc2c(=O)n3ccccc3nc2n(CCCOC)c1=NC(=O)c1cccnc1 : -18.4

Reported hERG current change (%, negative = inhibition) at 1uM of Cc1ccc(C(=O)N2CCN(c3ccccc3)CC2)cc1NC(=O)c1ccco1 : 1.43
